# assay-target: T1, human LAIR1 extracellular domain (ECD) protein with 6 HIS tag at the C-terminus (human, UniProt Q6GTX8 22-165)
# T1 construct: Produced recombinantly in HEK293 cells; the whole entry is named here; also called LAIR1 ECD; LAIR1-ECD
# T1 chain: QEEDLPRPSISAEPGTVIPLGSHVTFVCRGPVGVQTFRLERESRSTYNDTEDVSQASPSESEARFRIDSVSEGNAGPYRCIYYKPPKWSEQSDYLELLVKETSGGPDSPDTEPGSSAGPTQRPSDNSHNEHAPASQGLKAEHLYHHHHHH
# test-method-notes: ELISA, LAIR1 ECD coated
property-name: EC50 (read off the curve)

Some solved entries appear below for comparison.
binder="LA-30 (antibody, V domains shown, Rabbit monoclonal IgG; also called mAb LA-30) VH: EQSVESGGGLVQPEGSLTLTCKASGFDFSRNAICWVRQAPGKGPEWIACYSFSSSATYYASWAKSRFTISKTSSTTVTLQMTSLTAADTATYFCARVDIYGGSRYWGMWGPGTLVTISS VL: ELVMTQTPASVEAAVGGTVTIKCQASQNIGGDLAWYQQKPGQPPKLLIYRASTLESGVPSRFSGSGSGTEFTLTISDLECADAATYYCQDTDIGSGAFGGGTELEIK" experimental_result="~10 ng/mL"
binder="LA-259-2 (antibody, V domains shown, Rabbit monoclonal IgG) VH: QSVKESGGRLVTPGTPLTLTCTASGFSLYKYNIQWVRQAPGKGLEYIGASTYAGYTYYASWAKGRVTISRTSTTVDLKMTSPTTEDTATYFCARHIDGDYSGYALWGPGTLVTISS VL: ELVMTQTPASVSAAVGGTVTIKCQASQSIGTWFAWYQQKPGQSPKLLIYGPSKLASGVPPRFKGSGSGTEFTLTISDLECDDAATYYCQSNGGSISNGWGSFGGGTEVVVK" experimental_result="~30 ng/mL"

Continue with the binder presented below.
// EC50 (read off the curve) value for LA-64 (antibody, V domains shown, Rabbit monoclonal IgG; also called mAb LA-64) VH: EQSLESGGGLITPGGTLTLTCTASGFTVTRYYMNWVRQAPGKGLEWIGYIYASSKTYYANWAKGRFTISKTSTTVDLKMTSLTAEDTGTYFCARGGVGNSGLNLDLWGPGTLVTISS VL: ELVLTQTPASVSEPVGGTVTIKCQASQSIGSWLAWYQQKPGQPPKLLIYQASRLASGVSSRFGGSGSGTEFTLTISDLECADAATYYCQQAEYSGDVENTFGGGTEVVVK : ~10 ng/mL
